Reported percent inhibition of viability values are given for each entry in this list.
test system: IMC-1 (IL-2 20 ng/mL); assay: percent inhibition of viability; higher = more inhibition; settings: 72 h; 10000 nM;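 note: normalised to DMSO-only wells as negative and benzethonium chloride as positive control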
# unit: % | format: bare number

[in] Output reported percent inhibition of viability of the compound C[C@@H]1C[C@H]2O[C@@H]2/C=C\C=C\C(=O)Cc2c(Cl)c(O)cc(O)c2C(=O)O1 [Radicicol] (max concentration tested 10000 nM) on IMC-1 (IL-2 20 ng/mL).
[out] 101

[in] Find the measured percent inhibition of viability of CN1CCN(c2cc(C(=O)Nc3ccc4c(c3)-c3c(c(C(N)=O)nn3-c3ccc(F)cc3)CC4)c(Cl)cn2)CC1 [PHA 408] (max concentration tested 10000 nM) with IMC-1 (IL-2 20 ng/mL) as test system.
[out] 99.6

[in] Provide percent inhibition of viability, tested on IMC-1 (IL-2 20 ng/mL), for COC(=O)c1ccc2c(c1)NC(=O)/C2=C(\Nc1ccc(N(C)C(=O)CN2CCN(C)CC2)cc1)c1ccccc1 [Nintedanib] (max concentration tested 10000 nM) .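 Note: normalised to DMSO-only wells as negative and benzethonium chloride as positive control.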
[out] 100

Source of measurements: the supplement of paper PMC5908809
